Reference source: patent US12383598B2

experiment: Cytotoxicity to L929 cells (XTT); assay type: cell-based; conditions: mouse, L929 cells, GEKG dilution 1/512
Peptide text beside a SMILES is read from it.
measurement.label: cytotoxicity at 24 h (%)

molecule="NCCCC[C@H](NC(=O)[C@H](CCC(=O)O)NC(=O)CN)C(=O)NCC(=O)O [GEKG] (H-GEKG-OH)" measurement_label="cytotoxicity at 24 h" val=-1.71

* * *

test: Cytotoxicity to L929 cells (XTT); format: cell-based; conditions: mouse, L929 cells, GEKG dilution ¼
Peptide text beside a SMILES is read from it.
measurement.label: cytotoxicity at 24 h (%)

compound="NCCCC[C@H](NC(=O)[C@H](CCC(=O)O)NC(=O)CN)C(=O)NCC(=O)O [GEKG] (H-GEKG-OH)" display_unit=% val=-58.7
